Biological target: T1, Human Id2: Histidine (human, UniProt Q02363 1-134, limits assumed)
T1 construct: Fusion protein made in E. coli from vector pGW07; also called h-Id2: His; not shown: His tag
T1 sequence (looked up): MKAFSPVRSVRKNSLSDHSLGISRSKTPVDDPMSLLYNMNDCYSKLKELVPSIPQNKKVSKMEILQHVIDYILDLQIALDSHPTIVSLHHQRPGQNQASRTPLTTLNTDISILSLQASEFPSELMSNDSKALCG
Assay: ELISA, Ab 0.250 µg/ml
Endpoint: A450 (A450)
Report as a plain number; the unit A450 is understood.

Returns the measured A450 for the input binder. Input: rabbit monoclonal anti-mouse/human Id3, clone #BCH-4/#17-3 (antibody, V domains shown, Rabbit IgG from a rabbit hybridoma; also called m/h Id3 MoAb 17-3; BCH-3/#17-3) VH: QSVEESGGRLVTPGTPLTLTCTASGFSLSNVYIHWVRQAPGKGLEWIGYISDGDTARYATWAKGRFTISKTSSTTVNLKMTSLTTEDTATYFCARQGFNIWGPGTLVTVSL VL: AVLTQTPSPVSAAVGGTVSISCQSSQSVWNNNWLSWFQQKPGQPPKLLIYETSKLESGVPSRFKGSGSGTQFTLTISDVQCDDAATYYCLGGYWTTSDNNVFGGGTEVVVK
0.054

Which value of A450 has been reported for rabbit monoclonal anti-human Id3, clone #BCH-4/#3-3 (antibody, V domains shown, Rabbit IgG from a rabbit hybridoma; also called h Id3 MoAb 3-3) VH: QSVEESGGRLVTPGTPLTLTCTVSGIDLSSYAMSWVRQAPGKGLEWIGVIFPSNNVYYASWAKGRFTISKTSTTVDLKITSPTTEDTATYFCASMGAFDSWGPGTLVTVSS VL: QVLTQTPSPVSAAVGGTVTINCQASQSIYNDNDLAWFQQKPGQPPKLLIYDASTLTSGVPSRFKGSGSGTQFTLTISDLDCDDAATYYCAARYSGNIYGFGGGTEVVVK in the records?
0.054

Entry under review: rabbit monoclonal anti-mouse/human Id3, clone #BCH-4/#16-1 (antibody, V domains shown, Rabbit IgG from a rabbit hybridoma; also called m/h Id3 MoAb 16-1) VH: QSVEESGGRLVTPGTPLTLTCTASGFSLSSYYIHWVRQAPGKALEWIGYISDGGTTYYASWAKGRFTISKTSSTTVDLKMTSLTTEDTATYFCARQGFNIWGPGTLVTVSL VL: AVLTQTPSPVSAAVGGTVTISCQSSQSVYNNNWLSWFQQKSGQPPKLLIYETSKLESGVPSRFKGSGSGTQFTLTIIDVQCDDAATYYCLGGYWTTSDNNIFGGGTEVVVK . Reported A450?
0.052

Cited source: patent US20070178531A1
